Task for the reader: assign each of the following compounds its reported clearance.
# testMethodNotes: Clearance in Sprague-Dawley rat at 5 mg/kg, iv
# Type: ADME, organism-based
# Set-up: dose 5 mg/kg, route intravenous
# details: in vivo
Reply numerically in mL/min/kg, unit not repeated.

# input clearance lookup needed for "COC(=O)N[C@H](C(=O)N[C@H](Cc1ccc(-c2ccccn2)cc1)C[C@H](O)[C@H](Cc1ccccc1)NC(=O)[C@@H](N1CCN(Cc2cccc(C(C)(C)O)n2)C1=O)C(C)(C)C)C(C)(C)C" , thanks.
# output 22.5

# input Find the recorded clearance belonging to "COC(=O)N[C@H](C(=O)N[C@@H](Cc1ccc(-c2ccccn2)cc1)C[C@H](O)[C@H](Cc1ccccc1)NC(=O)[C@@H](N1CCN(Cc2ccccc2N)C1=O)C(C)(C)C)C(C)(C)C" and report it.
# output 33.2

# input Suppose we examine the compound "COC(=O)N[C@H](C(=O)N[C@@H](Cc1ccc(-c2ccccn2)cc1)C[C@H](O)[C@H](Cc1ccccc1)NC(=O)[C@@H](N1CCN(Cc2ccnc3ccccc23)C1=O)C(C)(C)C)C(C)(C)C" ; what clearance value has been reported?
# output 30

# input Which clearance is listed for "COC(=O)N[C@H](C(=O)N[C@@H](Cc1ccc(-c2ccccn2)cc1)C[C@H](O)[C@H](Cc1ccccc1)NC(=O)[C@@H](N1CCN(Cc2cccc(C(C)(C)O)n2)C1=O)C(C)(C)C)C(C)(C)C" ?
# output 23.3

# input Entry under review: "COC(=O)N[C@H](C(=O)N[C@@H](Cc1ccc(-c2ccccn2)cc1)C[C@H](O)[C@H](Cc1ccccc1)NC(=O)[C@@H](N1CCN(Cc2ccccc2)C1=O)C(C)(C)C)C(C)(C)C" . Reported clearance?
# output 19.2

# input Bench note: what clearance did "COC(=O)N[C@H](C(=O)N[C@@H](Cc1ccc(-c2ccccn2)cc1)[C@@H](O)C[C@H](Cc1ccccc1)NC(=O)[C@@H](N1CCN(Cc2csc(C)n2)C1=O)C(C)(C)C)C(C)(C)C" show?
# output 31.7

# input For the compound "COC(=O)N[C@H](C(=O)N[C@H](Cc1ccc(-c2ccccn2)cc1)C[C@H](O)[C@H](Cc1ccccc1)NC(=O)[C@@H](N1CCN(Cc2csc(C)n2)C1=O)C(C)(C)C)C(C)(C)C" , what clearance is on record?
# output 31

# input Look at this compound and give its reported clearance. "COC(=O)N[C@H](C(=O)N[C@@H](Cc1ccc(-c2ccccn2)cc1)[C@@H](O)C[C@H](Cc1ccccc1)NC(=O)[C@@H](N1CCN(Cc2ccnc3ccccc23)C1=O)C(C)(C)C)C(C)(C)C"
# output 33.3

# input Given the compound "COC(=O)N[C@H](C(=O)N[C@@H](Cc1ccc(-c2ccccn2)cc1)[C@@H](O)C[C@H](Cc1ccccc1)NC(=O)[C@@H](N1CCN(Cc2cccc(C(C)(C)O)n2)C1=O)C(C)(C)C)C(C)(C)C" , what is its reported clearance?
# output 16.7

# input I am curious: what clearance value has been reported for "COC(=O)N[C@H](C(=O)N[C@H](Cc1ccc(-c2ccccn2)cc1)C[C@H](O)[C@H](Cc1ccccc1)NC(=O)[C@@H](N1CCN(Cc2nc3ccccc3n2C)C1=O)C(C)(C)C)C(C)(C)C" ?
# output 54

# input Consider the compound shown here: "COC(=O)N[C@H](C(=O)N[C@@H](Cc1ccc(-c2ccccn2)cc1)C[C@H](O)[C@H](Cc1ccccc1)NC(=O)[C@@H](N1CCN(Cc2cccc(C)c2)C1=O)C(C)(C)C)C(C)(C)C" What is its recorded clearance?
# output 29.3

# input # query: clearance of entry "COC(=O)N[C@H](C(=O)N[C@H](Cc1ccc(-c2ccccn2)cc1)C[C@H](O)[C@H](Cc1ccccc1)NC(=O)[C@@H](N1CCN(Cc2ccnc3ccccc23)C1=O)C(C)(C)C)C(C)(C)C"
# output 41.7
